experiment: ovarian cancer cell viability with rucaparib, profiling panel, oncology-focused library, rucaparib conditional (AID 1508598); settings: patient-derived ovarian cancer cells, CellTiter-Glo viability, 144 h; at 1.25 µM; OCI-C5x cells; with rucaparib 10 µM; stronger effect = lower value; 100% = cells with rucaparib alone
measurement.kind: viability (%)
Express the result in % but write the number alone.

compound: CCN(CC)CCNC(=O)c1c(C)[nH]c(/C=C2\C(=O)Nc3ccc(F)cc32)c1C
units.label: %
viability: 126

compound: Cc1ccc(-n2nc(C(C)(C)C)cc2NC(=O)Nc2ccc(OCCN3CCOCC3)c3ccccc23)cc1
units.label: %
viability: 107

compound: Cc1ccc(Nc2nccc(N(C)c3ccc4c(C)n(C)nc4c3)n2)cc1S(N)(=O)=O
units.label: %
viability: 108

compound: CN(N=O)C(=O)N[C@@H]1[C@@H](O)[C@H](O)[C@@H](CO)O[C@@H]1O
units.label: %
viability: 97.9

compound: CNC(=O)c1cc(Oc2ccc(NC(=O)Nc3ccc(Cl)c(C(F)(F)F)c3)cc2)ccn1
units.label: %
viability: 116

compound: CCCC(CCC)C(=O)O
units.label: %
viability: 119

compound: CC(C)C[C@H](NC(=O)[C@H](Cc1ccccc1)NC(=O)c1cnccn1)B(O)O
units.label: %
viability: 1.59

compound: Nc1ncn([C@H]2C[C@H](O)[C@@H](CO)O2)c(=O)n1
units.label: %
viability: 80.4

Input line: Supply reported viability belonging to this compound: `O=C(NOCC1CC1)c1ccc(F)c(F)c1Nc1ccc(I)cc1Cl`
Output line: 104

Input line: Supply reported viability belonging to this compound: CCc1ccc(CCOc2ccc(CC3SC(=O)NC3=O)cc2)nc1 (centres undefined)
Output line: 111

Input line: Supply reported viability belonging to this compound: `Clc1ccc(Nc2nnc(Cc3ccncc3)c3ccccc23)cc1`
Output line: 129

Input line: Supply reported viability belonging to this compound: `COc1c(C)c2c(c(O)c1C/C=C(\C)CCC(=O)O)C(=O)OC2`
Output line: 128

Input line: Supply reported viability belonging to this compound: `CN1CC[C@H](c2c(O)cc(O)c3c(=O)cc(-c4ccccc4Cl)oc23)[C@H](O)C1`
Output line: 10.1

Input line: Supply reported viability belonging to this compound: `O=C(CCCCCCC(=O)Nc1ccccc1)NO`
Output line: 73.9

---

assay: viability loss in pontine glioma line – cell-based, SU-DIPG-XXV, MIPE5.0, CellTiter-Glo, qHTS, dose response (AID 1347065); conditions: CellTiter-Glo ATP luminescence;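 also: cells exposed to compound for 48 hours before ATP readout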
Inconclusive results are not listed. The source made the active and inactive calls. Cut-off not given; nearly all actives show AC50 up to about 26 µM.
# output must be one of active, inactive

Example entries and their recorded answers appear below.
compound: CC(C)(C)NCC(O)c1ccc(O)c(CO)c1 (stereo not drawn)
class.label: inactive
--
compound: NC(=O)c1ncn([C@@H]2O[C@H](CO)[C@@H](O)[C@H]2O)c1N
class.label: inactive
--
compound: COc1ccc(/C=C/C(=O)Nc2ccccc2C(=O)O)cc1OC
class.label: inactive
--
compound: N=c1ccn2c(n1)O[C@H]1[C@H](O)[C@@H](CO)O[C@H]12
class.label: inactive

Input line: Outcome? `O=C(O)C(=O)Nc1cccc(-c2nn[nH]n2)c1`
Output line: inactive

Input line: Outcome? CC(C(=O)O)c1ccc(-c2ccccc2)c(F)c1 (stereo not drawn)
Output line: inactive

Input line: Outcome? `NC(=NCc1ccccc1)NC(=O)c1nc(Cl)c(N)nc1N`
Output line: active

Input line: Outcome? `c1cnc2cc3c(cc2n1)C1CNCC3C1`
Output line: inactive

Input line: Outcome? `C[C@@H](NCCCc1cccc(C(F)(F)F)c1)c1cccc2ccccc12`
Output line: active

Input line: Outcome? `Cc1cc(O)c2c(c1)C(=O)c1cccc(O)c1C2=O`
Output line: inactive

Input line: Outcome? `O=C1C[C@@H](c2ccc(O)cc2)Oc2cc(O)cc(O)c21`
Output line: inactive

Input line: Outcome? `O=C(CCc1ccc(O)cc1)c1c(O)cc(O)cc1O[C@@H]1O[C@H](CO)[C@@H](O)[C@H](O)[C@H]1O`
Output line: inactive

Input line: Outcome? `O=C(O)c1cc(=O)[nH]c(=O)[nH]1`
Output line: inactive

Input line: Outcome? `COC(=O)[C@H](c1ccccc1Cl)N1CCc2sccc2C1`
Output line: inactive

Input line: Outcome? `Nc1ncnc2c1ncn2[C@@H]1O[C@H](CO)[C@@H](O)[C@@H]1O`
Output line: inactive

Input line: Outcome? `NCCCC(O)(P(=O)(O)O)P(=O)(O)O`
Output line: inactive

Input line: Outcome? `CC(C)C[C@H](NC(=O)[C@H](Cc1ccccc1)NC(=O)c1cnccn1)B(O)O`
Output line: active

Input line: Outcome? `CS(=O)(=O)CCNCc1ccc(-c2ccc3ncnc(Nc4ccc(OCc5cccc(F)c5)c(Cl)c4)c3c2)o1`
Output line: active
